targetEntity: AthDHS2 (Arabidopsis thaliana, UniProt Q00218)
Construct: AthDHS2; residues 34–507; hexa-histidine
Sequence (Q00218 34-507): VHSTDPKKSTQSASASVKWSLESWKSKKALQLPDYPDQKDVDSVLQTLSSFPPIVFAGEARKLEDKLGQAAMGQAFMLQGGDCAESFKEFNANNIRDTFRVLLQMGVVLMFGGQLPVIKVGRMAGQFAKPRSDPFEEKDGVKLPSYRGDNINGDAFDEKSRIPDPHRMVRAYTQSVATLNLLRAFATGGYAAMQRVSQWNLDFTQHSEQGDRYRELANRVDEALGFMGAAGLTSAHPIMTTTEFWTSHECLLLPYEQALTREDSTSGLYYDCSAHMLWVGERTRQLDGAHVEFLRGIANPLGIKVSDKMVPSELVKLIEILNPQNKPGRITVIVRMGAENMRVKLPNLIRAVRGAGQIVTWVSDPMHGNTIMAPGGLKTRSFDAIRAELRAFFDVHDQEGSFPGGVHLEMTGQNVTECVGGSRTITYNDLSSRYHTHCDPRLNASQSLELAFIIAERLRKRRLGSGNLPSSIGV
experimentalDetails: DHS enzymatic activity assay with recombinant AthDHS2
protocolConditions: varied effector concentrations; read-out: IC50 of AthDHS2 inhibition
For each of the compounds below, state its pIC50.
Give bare numbers, as −log10 of the molar value.

compound: N[C@@H](Cc1c[nH]c2ccccc12)C(=O)O
pIC50: 3.65

Continue with the compound presented below.
Task: Using the record for C=C(O[C@@H]1C=C(C(=O)O)C=C[C@H]1O)C(=O)O [chorismate] , report its pIC50.
Result: 4.28

* * *

targetEntity: AthDHS1 (Arabidopsis thaliana)
Construct: AthDHS1; residues 49–525; hexa-histidine; made in house; host or cells: E. coli Rosetta2 (DE3), pET28a
Sequence (P29976 49-525): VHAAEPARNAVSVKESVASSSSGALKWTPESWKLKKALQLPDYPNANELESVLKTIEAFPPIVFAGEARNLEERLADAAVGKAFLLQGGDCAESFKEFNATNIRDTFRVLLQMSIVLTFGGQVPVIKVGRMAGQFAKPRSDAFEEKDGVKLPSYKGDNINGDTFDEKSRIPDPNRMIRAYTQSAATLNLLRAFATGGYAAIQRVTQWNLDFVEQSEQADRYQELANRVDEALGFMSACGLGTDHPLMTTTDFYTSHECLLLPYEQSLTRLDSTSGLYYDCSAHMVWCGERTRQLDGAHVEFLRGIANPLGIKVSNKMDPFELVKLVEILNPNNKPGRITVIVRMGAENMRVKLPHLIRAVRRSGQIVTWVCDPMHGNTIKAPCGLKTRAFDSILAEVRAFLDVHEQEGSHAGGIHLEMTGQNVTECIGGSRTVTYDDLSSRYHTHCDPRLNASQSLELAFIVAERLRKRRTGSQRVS
experimentalDetails: DHS enzymatic activity assay with recombinant AthDHS1
Type: biochemical
protocolConditions: 1 mM effector
measurementLabel: effect on AthDHS1 activity (in words)

molecule: COc1cc(/C=C/C(=O)O)cc(OC)c1O [sinapate]
targetEntity: AthDHS1 (Arabidopsis thaliana)
effect on AthDHS1 activity (in words): no effects
--
molecule: N[C@@H](Cc1ccc(O)cc1)C(=O)O
targetEntity: AthDHS1 (Arabidopsis thaliana)
effect on AthDHS1 activity (in words): significantly activated
--
molecule: N[C@@H](Cc1c[nH]c2ccccc12)C(=O)O
targetEntity: AthDHS1 (Arabidopsis thaliana)
effect on AthDHS1 activity (in words): significantly activated
--
molecule: COc1cc(/C=C/C(=O)O)ccc1O [ferulate]
targetEntity: AthDHS1 (Arabidopsis thaliana)
effect on AthDHS1 activity (in words): no effects
--
molecule: O=C(O)/C=C/c1ccc(O)c(O)c1 [caffeate]
targetEntity: AthDHS1 (Arabidopsis thaliana)
effect on AthDHS1 activity (in words): completely inhibited
--
molecule: C=C(O[C@@H]1C=C(C(=O)O)C=C[C@H]1O)C(=O)O [chorismate]
targetEntity: AthDHS1 (Arabidopsis thaliana)
effect on AthDHS1 activity (in words): completely inhibited
--
molecule: O=C(O)/C=C/c1ccc(O)cc1 [p-coumarate]
targetEntity: AthDHS1 (Arabidopsis thaliana)
effect on AthDHS1 activity (in words): no effects

Continue with the molecule presented below.
Task: Using the record for O=C(O)/C=C/c1ccccc1 [cinnamate] , report its effect on AthDHS1 activity (in words).
Result: no effects
